Measured values drawn from PubChem BioAssay (NCI) for this set.

# assay_notes: NCI Yeast Anticancer Drug Screen. Data for the rad50 strain (AID 155);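 note: 0% = growth of vehicle-only cultures of the same strain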
# condition_summary: S. cerevisiae rad50 strain growth inhibition; at 5.0 µM (retest, dose inferred, filed as 0.5); active compounds read high
Compounds without any hit were thinned out: in the full panel of roughly 79,000, 15% have a hit.
Please provide measured growth inhibition for the entries that follow.
Record the value in %, omitting the unit from your answer.

Annotate the compound `c1ccc([CH2][Pb]([c]2ccccc2)([c]2ccccc2)[c]2ccccc2)cc1` with its measured growth inhibition.
96

Annotate the compound CCOC(=O)C(Cc1ccc(O)cc1)NCc1ccc(N(CCCl)CCCl)cc1 (stereo not given) with its measured growth inhibition.
83

Annotate the compound OCC(O)C(O)CO (stereo not given) (tested in a mixture with another compound) with its measured growth inhibition.
-130

Annotate the compound CCC1(O)C(=O)OCc2c1cc1n(c2=O)Cc2cc3cc(Cl)ccc3nc2-1 (stereo not given) with its measured growth inhibition.
97

Annotate the compound `Nc1ccc(N=Nc2ccccc2)cc1` with its measured growth inhibition.
1

* * *

# assay_notes: NCI Yeast Anticancer Drug Screen. Data for the wt1 strain (AID 149);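 note: 0% = growth of vehicle-treated wt1 cultures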
# condition_summary: S. cerevisiae wt1 strain (SPY 50644) growth inhibition; at 1.2 µM; active compounds read high
This is part of a sample that, as a whole, favours compounds with a hit. Of some 79,000 tested, about 15% had one in any assay.
recorded_metric: growth inhibition (%)
Record the value in %, omitting the unit from your answer.

Annotate the compound `CN(N=O)C(=O)NNC(=O)N(C)N=O` with its measured growth inhibition.
0

Annotate the compound `C[CH2][Sn]([CH2]C)([O]S(C)(=O)=O)[O]S(C)(=O)=O` with its measured growth inhibition.
-27

Annotate the compound `O=C(O)CCCc1cc(I)c(N(CCCl)CCCl)c(I)c1` with its measured growth inhibition.
-59

Annotate the compound `O=C1NC(=S)NC(=O)C1=Cc1ccc([N+](=O)[O-])o1` with its measured growth inhibition.
-18

Annotate the compound CC1CCCN(CCc2ccccc2)CC1 (configuration not stated) with its measured growth inhibition.
2

Annotate the compound `Nc1nnc(N)n1-n1c(N)nnc1N` with its measured growth inhibition.
-1

Annotate the compound `O=P(Oc1ccc(Cl)cc1)(Oc1ccc(Cl)cc1)N1CC1` with its measured growth inhibition.
-2

Annotate the compound `S=C1NC2(CCCCC2)NC12CCCCC2` with its measured growth inhibition.
-2

Annotate the compound CC1=C(O)C(=O)C=C2C1=CC=C1[C@@]2(C)CCC2(C)[C@@H]3C[C@@H](C)C(=O)C[C@]3(C)CC[C@]12C (some centres not stated) with its measured growth inhibition.
9

Annotate the compound COc1cc([C@@H]2c3cc4c(cc3C[C@@H]3COC(=O)C32)OCO4)cc(OC)c1O (some centres not stated) with its measured growth inhibition.
32

Annotate the compound `O=c1c2ccccc2[se]n1-c1cccnc1` with its measured growth inhibition.
-5

Annotate the compound `O=[N+]([O-])c1ccc(N2CCC(CCCC3CCN(c4ccc([N+](=O)[O-])cc4[N+](=O)[O-])CC3)CC2)c([N+](=O)[O-])c1` with its measured growth inhibition.
-6

Annotate the compound `O=C1C=CC(=O)C1(Br)Br` with its measured growth inhibition.
-1

Annotate the compound `CC1(C)N=C(N)N=C(N)N1c1cccc(N)c1.[Sn]` with its measured growth inhibition.
21

Annotate the compound COC1CC(CC2CCC(C)C(C(C)C(=O)O)O2)OC2(OC(C)(C3CCC(C)(C4OC(C5OC(O)(CO)C(C)CC5C)CC4C)O3)CC2C)C1C (configuration not stated) with its measured growth inhibition.
-2

Annotate the compound CCC1(O)C(=O)OCc2c1cc1n(c2=O)Cc2c-1nc1ccccc1c2OC (configuration not stated) with its measured growth inhibition.
11

Annotate the compound `O=P(CCCCP(=O)(c1ccccc1)c1ccccc1)(c1ccccc1)c1ccccc1.[Cl][Sn]([Cl])([c]1ccccc1)[c]1ccccc1` with its measured growth inhibition.
-6

Annotate the compound `O=[N+]([O-])c1cc(S(=O)(=O)F)ccc1Cl` with its measured growth inhibition.
27

Annotate the compound `NNc1ccccc1Cl` with its measured growth inhibition.
40

Annotate the compound `c1ccc(N=c2nc(N3CCOCC3)ss2)cc1` with its measured growth inhibition.
-3

Annotate the compound CNC(=O)OCC1C2=C(C(=O)C(C)=C(N)C2=O)N2CC3C(N3C)C12OC (configuration not stated) with its measured growth inhibition.
-2

Annotate the compound `COc1cc2ccccc2c2cc([N+](=O)[O-])oc12` with its measured growth inhibition.
4

* * *

# assay_notes: NCI Yeast Anticancer Drug Screen. Data for the rad50 strain (AID 155);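 note: 0% = growth of vehicle-only cultures of the same strain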
# condition_summary: S. cerevisiae rad50 strain growth inhibition; at 5.0 µM (retest, dose inferred, filed as 0.5)
About 79,000 compounds went through this panel and 15% of them were active in at least one assay; those are over-represented in the sample as a whole. Calls of active or inactive are those of the source. Cut-off read from the data, not from the text of the source: active = growth inhibition above about 70%; inactive = the rest.
Log the outcome using a class from Yes = active, No = inactive

Could you please tell me the result logged for CC(=O)OC1C(=O)OCC23CCC4(C)OC4C2OC2CC(OC(=O)/C=C/C=C/C(=O)OCCC1C)C3(C)C21CO1 (centres undefined) in this assay?
Yes

Could you please tell me the result logged for `N#Cc1ccc(N=Cc2c([O-])ccc3ccccc23)cc1.[C-]#[O+].[C-]#[O+].[Ir]` in this assay?
No

Could you please tell me the result logged for `CO[C@H](/C(C)=C/C=C/C(C)=C/c1coc(C)n1)[C@H](C)[C@H]1C[C@@H](O)[C@@]2(C)O[C@H]2/C=C/[C@@H](C)[C@@H]2C[C@@H](CC(=O)O2)C[C@H]2O[C@@H]2C(=O)O1` in this assay?
No

Could you please tell me the result logged for `CCCN1CN(c2ccccc2)C2(CCN(CCCC(=O)c3ccc(F)cc3)CC2)C1=O` in this assay?
No

* * *

# assay_notes: NCI Yeast Anticancer Drug Screen. Data for the cln2 rad14 strain (AID 165);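 note: 0% = growth equal to vehicle treated cultures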
# condition_summary: S. cerevisiae cln2 rad14 strain, at 5.0 µM (retest, dose inferred, filed as 0.5)
This is part of a sample that, as a whole, favours compounds with a hit. Of some 79,000 tested, about 15% had one in any assay. Active and inactive are the calls of the source. No stated cut-off is given here; in the data, active means growth inhibition above about 70%; inactive means the rest.
Log the outcome using a class from true (1) for active, false (0) for inactive

Could you please tell me the result logged for `CCOc1c(Br)cc(/C=C/[N+](=O)[O-])cc1OC` in this assay?
false (0)

Could you please tell me the result logged for [Cl][Hg][CH2]CC1CC=CCC1 (configuration not stated) in this assay?
true (1)

Could you please tell me the result logged for Cc1ccc(C(=O)OC(C(=O)O)C(OC(=O)c2ccc(C)cc2)C(=O)O)cc1 (configuration not stated) (tested in a mixture with another compound) in this assay?
false (0)

Could you please tell me the result logged for `O=C1C=CC(=O)C1(Br)Br` in this assay?
false (0)

Could you please tell me the result logged for `Oc1c(Cl)cc(-c2cc(Cl)c(O)c(Cl)c2)cc1Cl` in this assay?
false (0)

Could you please tell me the result logged for `C/C(=N\N=C(\[Se])N1CCN(c2ccccn2)CC1)c1ccccn1` in this assay?
false (0)

Could you please tell me the result logged for `C[CH2][Sn]([CH2]C)([CH2]C)[O]C(=O)CO` in this assay?
false (0)

* * *

# assay_notes: NCI Yeast Anticancer Drug Screen. Data for the mlh1 rad18 strain (AID 175)
# condition_summary: S. cerevisiae mlh1 rad18 strain growth inhibition; at 50.0 µM; active compounds read high
The panel holds about 79,000 compounds, 15% with a hit somewhere; the sample as a whole holds those more often.
recorded_metric: growth inhibition (%)
Record the value in %, omitting the unit from your answer.

Annotate the compound `COc1cc(OC)c(OC)cc1/C=C/[N+](=O)[O-]` with its measured growth inhibition.
92

Annotate the compound `CS(=O)(=O)OCCN(CCOS(C)(=O)=O)c1ccc(C=O)cc1` with its measured growth inhibition.
91

Annotate the compound `COc1cc(O)c2c(O)c3c(c4c2c1[C@]1(C4)C(C)=CCCC1(C)C)[C@H](O)[C@@]1(O)CC(=O)C(C(N)=O)=C(O)[C@@]1(O)C3=O` with its measured growth inhibition.
96.8

Annotate the compound O=C(c1ccccc1)C1CCCN(CCc2ccccc2)C1 (stereo not given) with its measured growth inhibition.
67.7

Annotate the compound `CNC(=O)Oc1ccccc1/C=N\Sc1ccc(Cl)cc1` with its measured growth inhibition.
99.2

Annotate the compound `N#C[SH2+].N#C[SH2+].N#C[SH2+].N#C[SH2+].[Cu+2].c1ccc(C[P+](c2ccccc2)(c2ccccc2)c2ccccc2)cc1` with its measured growth inhibition.
97.2

Annotate the compound `O=c1oc2ccccc2c(O)c1C(c1ccc2ccccc2c1)c1c(O)c2ccccc2oc1=O` with its measured growth inhibition.
80

Annotate the compound `CC[N-]c1nnnn1CC.[Au+].c1ccc([PH+](c2ccccc2)c2ccccc2)cc1` with its measured growth inhibition.
97.2

Annotate the compound `O=C(CCl)c1ccc(O)cc1` with its measured growth inhibition.
97.8

Annotate the compound `Oc1cccc[c]1[Hg][Cl]` with its measured growth inhibition.
99.5
